# assay-comment: Spontaneous CO release from suspensions (gas chromatography, TCD)
# Format: physicochemical
# study-conditions: suspension in RPMI with 10% FBS, 37° C., dark, 2 hours
Examples of compounds with documented Equivalents of CO released, RPMI follow.

Known Equivalents of CO released, RPMI results, listed for orientation:
compound="O=[C][Mo]([I])([C]=O)([C]=O)([C]=O)[C]=O [Compound I.16, K(diglyme)3 [Mo(CO)5I]]" reported_result="0.94 equivalents of CO"
compound=O=[C][Mo]([Br])([C]=O)([C]=O)([C]=O)[C]=O reported_result="1.82 equivalents of CO"
compound="O=[C][Mo]([I])([C]=O)([C]=O)([C]=O)[C]=O [Compound I.6]" reported_result="0.42 equivalents of CO"

Now for the compound whose Equivalents of CO released, RPMI we want.
Challenge: Requested read-out: Equivalents of CO released, RPMI. Entry: O=[C][Mo]([I])([C]=O)([C]=O)([C]=O)[C]=O [Compound I.18, [NH4](diglyme)3[Mo(CO)5I]]
Response given: 0.55 equivalents of CO

====

# assay-comment: Spontaneous CO release from suspensions (gas chromatography, TCD)
# Type: physicochemical
# study-conditions: suspension in RPMI with 10% FBS, 37° C., dark, 6 hours
result-type: Equivalents of CO released, RPMI

Consider the following illustrative entries.
molecule="O=[C][Mo]([I])([C]=O)([C]=O)([C]=O)[C]=O [Compound I.16, K(diglyme)3 [Mo(CO)5I]]" reported_result="1.28 equivalents of CO"
molecule="O=[C][Mo]([I])([C]=O)([C]=O)([C]=O)[C]=O [Compound I.18, [NH4](diglyme)3[Mo(CO)5I]]" reported_result="0.79 equivalents of CO"
molecule=O=[C][Mo]([Br])([C]=O)([C]=O)([C]=O)[C]=O reported_result="2.27 equivalents of CO"

Kindly consider the entry below.
Challenge: Data request, read-out Equivalents of CO released, RPMI, for O=[C][Mo]([I])([C]=O)([C]=O)([C]=O)[C]=O [Compound I.6]
Response given: 1.25 equivalents of CO

====

# assay-comment: Spontaneous CO release from suspensions (gas chromatography, TCD)
# Format: physicochemical
# study-conditions: suspension in RPMI with 10% FBS, 37° C., dark, 4 hours
result-type: Equivalents of CO released, RPMI

Use the examples below as a reference point.
compound=O=[C][Mo]([Br])([C]=O)([C]=O)([C]=O)[C]=O reported_result="2.16 equivalents of CO"
compound="O=[C][Mo]([I])([C]=O)([C]=O)([C]=O)[C]=O [Compound I.18, [NH4](diglyme)3[Mo(CO)5I]]" reported_result="0.73 equivalents of CO"
compound="O=[C][Mo]([I])([C]=O)([C]=O)([C]=O)[C]=O [Compound I.6]" reported_result="1.00 equivalents of CO"

Attention now turns to another entry.
Challenge: Fill in the blank: the reported Equivalents of CO released, RPMI of O=[C][Mo]([I])([C]=O)([C]=O)([C]=O)[C]=O [Compound I.16, K(diglyme)3 [Mo(CO)5I]] is ____.
Response given: 1.20 equivalents of CO
